assay.metric: melting point

Solved cases (5 shown):
Bench note: what melting point did C=C(C)C(=O)OCCCCCCCCCCCOc1ccc(-c2nc(-c3ccccc3)nc(-c3ccc(OCCCCCCCCCCCOC(=O)C(=C)C)cc3O)n2)c(O)c1 show?
68.3 °C

Bench note: what melting point did CCCc1nc(OC)c(NC(=O)N2CCN(c3cc(OC)cc(OC)c3)CC2)cc1C(=O)NC(C)C(=O)Nc1cc(CO)cc(Nc2c3ccccc3nc3ccccc23)c1 (stereo unspecified) show?
220 to 222 °C

Bench note: what melting point did CC(=O)ON=NCc1ccc(C(=O)NCCCNC(=O)[C@@H]2CCCN2S(=O)(=O)c2ccc(Cl)c(COc3cccc4c(-n5ccnc5)cc(C)nc34)c2Cl)cc1 show?
96 °C

Bench note: what melting point did CC(C)[C@H](NC(=O)N(C)Cc1csc(NC(=O)OC(C)(C)C)n1)C(=O)N[C@@H](Cc1ccccc1)C[C@H](O)[C@H](Cc1ccccc1)NC(=O)[C@@H](NC(=O)N(C)Cc1csc(NC(=O)OC(C)(C)C)n1)C(C)C show?
115 to 120 °C

Bench note: what melting point did [C-]#[N+]c1c(C)cccc1C(C)(C)C show?
60 to 62 °C

Okay, now this compound:
Bench note: what melting point did [C-]#[N+]C(C)C(=O)N(c1ccccc1)C(C)C (stereo unspecified) show?
47 to 50 °C
